# Assay notes: Buccal delivery of resveratrol in humans: free resveratrol in plasma
# Type: in vivo
# Experimental parameters: human, 1 mg resveratrol in 50 mL solution retained in the mouth for one minute before swallowing, plasma two minutes later, read-out: free resveratrol measured in plasma
Readout kind: concentration at 2 min (ng/mL)
Express it in ng/mL; write the number only.

The value of concentration at 2 min measured for the molecule Oc1ccc(C=Cc2cc(O)cc(O)c2)cc1 turned out to be 37
